# study.target: T1, Ax1 protein, extracellular domain (human, UniProt P30530 26-451)
# T1 construct: extracellular domain; also called Axl; Ark
# T1 sequence (looked up): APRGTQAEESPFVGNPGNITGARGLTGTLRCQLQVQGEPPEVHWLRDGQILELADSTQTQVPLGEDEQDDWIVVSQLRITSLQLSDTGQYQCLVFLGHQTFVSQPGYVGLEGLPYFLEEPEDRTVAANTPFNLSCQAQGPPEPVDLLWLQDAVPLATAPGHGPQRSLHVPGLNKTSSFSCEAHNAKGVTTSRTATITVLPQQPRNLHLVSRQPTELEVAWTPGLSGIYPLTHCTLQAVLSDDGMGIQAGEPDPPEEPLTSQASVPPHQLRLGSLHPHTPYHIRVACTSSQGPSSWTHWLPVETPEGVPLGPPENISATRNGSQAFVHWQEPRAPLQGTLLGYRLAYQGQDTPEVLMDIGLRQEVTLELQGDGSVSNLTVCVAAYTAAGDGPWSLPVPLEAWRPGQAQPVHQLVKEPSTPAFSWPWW
# experiment.summary: ELISA, mutant diluted 1:9
property.measured: Affinity ELISA CPE mutant ratio (1:9, pH 6.0/7.4)

INSERT INTO results (binder, test_value) VALUES
  ('HC-B102A (antibody, V domains shown, CPE single point mutant; printed B102, read as E102 (other rows print HC-E102x)) VH: EVQLVQSGAEVKKPGATVKISCKVSGYSFTGHTMNWIRQPPGKGLEWIGLIKPSNGGTSYNQKFKGRVTISADKSISTAYLQWSSLKASDTAMYYCAHGHYASYFAMDYWGQGTLVTVSS VL: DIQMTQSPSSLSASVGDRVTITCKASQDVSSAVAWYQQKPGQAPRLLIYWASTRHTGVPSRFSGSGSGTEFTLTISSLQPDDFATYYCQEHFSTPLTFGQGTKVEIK', 1.69),
  ('LC-P095H (antibody, V domains shown, CPE single point mutant) VH: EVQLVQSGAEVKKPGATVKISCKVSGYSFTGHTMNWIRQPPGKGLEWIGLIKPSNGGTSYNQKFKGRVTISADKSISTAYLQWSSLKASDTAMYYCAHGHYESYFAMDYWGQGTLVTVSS VL: DIQMTQSPSSLSASVGDRVTITCKASQDVSSAVAWYQQKPGQAPRLLIYWASTRHTGVPSRFSGSGSGTEFTLTISSLQPDDFATYYCQEHFSTHLTFGQGTKVEIK', 2.75),
  ('HC-S059T (antibody, V domains shown, CPE single point mutant) VH: EVQLVQSGAEVKKPGATVKISCKVSGYSFTGHTMNWIRQPPGKGLEWIGLIKPSNGGTTYNQKFKGRVTISADKSISTAYLQWSSLKASDTAMYYCAHGHYESYFAMDYWGQGTLVTVSS VL: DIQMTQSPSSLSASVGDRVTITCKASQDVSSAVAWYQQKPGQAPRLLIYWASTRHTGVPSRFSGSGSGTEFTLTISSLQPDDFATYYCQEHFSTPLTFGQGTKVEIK', 1.93),
  ('LC-A032M (antibody, V domains shown, CPE single point mutant) VH: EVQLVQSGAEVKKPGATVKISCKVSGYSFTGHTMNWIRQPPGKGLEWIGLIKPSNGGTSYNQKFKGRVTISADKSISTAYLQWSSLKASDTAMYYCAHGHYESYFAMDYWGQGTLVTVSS VL: DIQMTQSPSSLSASVGDRVTITCKASQDVSSMVAWYQQKPGQAPRLLIYWASTRHTGVPSRFSGSGSGTEFTLTISSLQPDDFATYYCQEHFSTPLTFGQGTKVEIK', 2.92),
  ('LC-F092E (antibody, V domains shown, CPE single point mutant) VH: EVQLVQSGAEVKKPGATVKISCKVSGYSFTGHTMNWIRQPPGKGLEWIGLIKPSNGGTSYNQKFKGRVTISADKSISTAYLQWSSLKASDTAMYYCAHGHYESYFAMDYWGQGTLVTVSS VL: DIQMTQSPSSLSASVGDRVTITCKASQDVSSAVAWYQQKPGQAPRLLIYWASTRHTGVPSRFSGSGSGTEFTLTISSLQPDDFATYYCQEHESTPLTFGQGTKVEIK', 2);
